// reported IC50 per item
target: Integrin alpha-V/beta-3 (Homo sapiens, UniProt P05106+P06756); test: Inhibition of integrin alpha-V-beta-3 receptor by ELISA
Sequence (P05106 27-788 limits assumed): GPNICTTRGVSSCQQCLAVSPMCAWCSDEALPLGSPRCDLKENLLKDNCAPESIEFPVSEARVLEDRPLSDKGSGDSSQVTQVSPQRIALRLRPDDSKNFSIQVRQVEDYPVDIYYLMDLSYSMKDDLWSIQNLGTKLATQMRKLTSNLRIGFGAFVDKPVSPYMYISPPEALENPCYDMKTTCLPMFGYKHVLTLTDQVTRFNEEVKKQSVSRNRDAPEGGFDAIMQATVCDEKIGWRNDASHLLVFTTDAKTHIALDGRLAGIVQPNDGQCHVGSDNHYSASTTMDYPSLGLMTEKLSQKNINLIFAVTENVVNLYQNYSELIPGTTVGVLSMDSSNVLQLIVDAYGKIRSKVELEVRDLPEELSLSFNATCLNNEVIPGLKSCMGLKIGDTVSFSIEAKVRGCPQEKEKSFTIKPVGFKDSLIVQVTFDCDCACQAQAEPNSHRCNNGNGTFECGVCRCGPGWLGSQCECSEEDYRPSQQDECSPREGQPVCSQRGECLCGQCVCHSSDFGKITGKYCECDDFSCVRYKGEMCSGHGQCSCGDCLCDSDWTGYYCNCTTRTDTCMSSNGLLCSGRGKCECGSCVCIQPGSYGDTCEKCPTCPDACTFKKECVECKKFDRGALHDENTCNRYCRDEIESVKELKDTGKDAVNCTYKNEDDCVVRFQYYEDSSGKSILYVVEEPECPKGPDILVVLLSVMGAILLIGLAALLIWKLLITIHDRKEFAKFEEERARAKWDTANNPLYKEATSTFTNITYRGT
Sequence (P06756 31-889 limits assumed): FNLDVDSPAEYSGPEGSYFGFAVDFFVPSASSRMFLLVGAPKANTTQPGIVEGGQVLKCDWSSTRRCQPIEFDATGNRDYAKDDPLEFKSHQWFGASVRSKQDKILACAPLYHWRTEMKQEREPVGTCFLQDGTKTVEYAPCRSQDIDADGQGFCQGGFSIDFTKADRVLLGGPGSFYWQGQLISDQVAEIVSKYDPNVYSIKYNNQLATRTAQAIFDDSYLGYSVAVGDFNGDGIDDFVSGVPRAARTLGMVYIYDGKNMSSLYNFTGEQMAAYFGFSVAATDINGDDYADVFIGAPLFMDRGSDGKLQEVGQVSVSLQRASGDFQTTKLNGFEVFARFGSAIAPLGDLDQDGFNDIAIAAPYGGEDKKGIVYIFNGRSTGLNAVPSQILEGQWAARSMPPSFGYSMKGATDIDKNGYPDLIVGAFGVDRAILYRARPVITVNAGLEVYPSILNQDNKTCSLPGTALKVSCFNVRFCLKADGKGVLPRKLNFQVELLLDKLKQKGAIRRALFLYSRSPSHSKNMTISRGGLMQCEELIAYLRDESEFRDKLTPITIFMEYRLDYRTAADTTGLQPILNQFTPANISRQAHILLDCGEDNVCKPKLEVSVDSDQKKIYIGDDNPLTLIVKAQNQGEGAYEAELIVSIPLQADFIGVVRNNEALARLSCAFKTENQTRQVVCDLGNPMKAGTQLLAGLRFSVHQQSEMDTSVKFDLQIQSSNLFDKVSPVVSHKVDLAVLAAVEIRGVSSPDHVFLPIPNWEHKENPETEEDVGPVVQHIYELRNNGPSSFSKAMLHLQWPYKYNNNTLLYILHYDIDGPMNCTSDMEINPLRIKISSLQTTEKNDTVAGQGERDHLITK
Sequence (P06756 891-1048 limits assumed): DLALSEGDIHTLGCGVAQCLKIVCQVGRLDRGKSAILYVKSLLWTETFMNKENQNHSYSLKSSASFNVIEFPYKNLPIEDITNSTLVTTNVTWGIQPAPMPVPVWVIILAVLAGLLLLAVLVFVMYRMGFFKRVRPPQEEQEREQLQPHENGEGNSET
Only the number, expressed in nM, is required.

COc1ccnc(NC[C@@H]2C[C@@H](OCC(=O)NC[C@H](NC(=O)C3(C)CCCCC3)C(=O)O)CN2C(=O)OCc2ccccc2)c1; 690
Cc1cc(C)c(S(=O)(=O)N[C@@H](CNC(=O)CO[C@@H]2C[C@@H](CNc3ccccn3)N(C(=O)CC(C)(C)C)C2)C(=O)O)c(C)c1; 36

Request: IC50, test system Integrin alpha-V/beta-3 (Homo sapiens, UniProt P05106+P06756), entry COc1ccnc(NC[C@@H]2C[C@@H](OCC(=O)NC[C@H](NC(=O)C3(C)CCCCC3)C(=O)O)CN2C(=O)CC(C)(C)C)c1 980

Request: IC50, test system Integrin alpha-V/beta-3 (Homo sapiens, UniProt P05106+P06756), entry COC(=O)N1C[C@H](OCC(=O)NC[C@H](NS(=O)(=O)c2c(C)cc(C)cc2C)C(=O)O)C[C@H]1CNc1ccccn1 9
